// IC50 lookup, one value per entry
target-system: T1, murine IL-21R extracellular domain His-Flag fusion protein (murine, UniProt Q9JHX3 20-237)
T1 construct: Biotinylated in the ELISAs; also called mIL-21R-H/F; murine IL-21R-H/F
method-summary: competition ELISA; competitor plate-bound 18A5 IgG
measurement-kind: IC50 (nM)

binder="scFv H3 (scFv) scFv: QVQLQESGPGLVKTSETLSLTCAVSGYSISSGYYWGWIRQPPGKGLEWIGSISHTGNTYYNPPLKSRVTISVDTSKNQFSLKLSSVTAADTAVYYCARFMGFGRPEYWGKGTLVTVSSGGGGSGGGGSGGGGSALSSELTQDPPVSVALGQTVTLTCQGDSLRTYYASWYQQKSGQAPILLLYGKHKRPSGIPDRFSGSTSGDTASLTITGAQAEDEADYYCNSRDSSGNPHVLFGGGTQLTVL" unit_of_measure=nM measured_number=14
binder="scFv L18 (scFv) scFv: QVQLQESGPGLVKTSETLSLTCAVSGYSISSGYYWGWIRQPPGKGLEWIGSISHTGNTYYNPPLKSRVTISVDTSKNQFSLKLSSVTAADTAVYYCARGGGISRPEYWGKGTLVTVSSGGGGSGGGGSGGGGSALSSELTQDPPVSVALGQTVTLTCQGDSLRTYYASWYQQKSGQAPILLLYGKHKRPSGIPDRFSGSTSGDTASLTITGAQAEDEADYYCVTRSVKGNPHVLFGGGTQLTVL" unit_of_measure=nM measured_number=8
binder="scFv H6 (scFv) scFv: QVQLQESGPGLVKTSETLSLTCAVSGYSISSGYYWGWIRQPPGKGLEWIGSISHTGNTYYNPPLKSRVTISVDTSKNQFSLKLSSVTAADTAVYYCARFFGFGRPEYWGKGTLVTVSSGGGGSGGGGSGGGGSALSSELTQDPPVSVALGQTVTLTCQGDSLRTYYASWYQQKSGQAPILLLYGKHKRPSGIPDRFSGSTSGDTASLTITGAQAEDEADYYCNSRDSSGNPHVLFGGGTQLTVL" unit_of_measure=nM measured_number=13
binder="scFv L4 (scFv) scFv: QVQLQESGPGLVKTSETLSLTCAVSGYSISSGYYWGWIRQPPGKGLEWIGSISHTGNTYYNPPLKSRVTISVDTSKNQFSLKLSSVTAADTAVYYCARGGGISRPEYWGKGTLVTVSSGGGGSGGGGSGGGGSALSSELTQDPPVSVALGQTVTLTCQGDSLRTYYASWYQQKSGQAPILLLYGKHKRPSGIPDRFSGSTSGDTASLTITGAQAEDEADYYCSTRSSKGNPHVLFGGGTQLTVL" unit_of_measure=nM measured_number=8
binder="scFv H5 (scFv) scFv: QVQLQESGPGLVKTSETLSLTCAVSGYSISSGYYWGWIRQPPGKGLEWIGSISHTGNTYYNPPLKSRVTISVDTSKNQFSLKLSSVTAADTAVYYCARFLGFGRPEYWGKGTLVTVSSGGGGSGGGGSGGGGSALSSELTQDPPVSVALGQTVTLTCQGDSLRTYYASWYQQKSGQAPILLLYGKHKRPSGIPDRFSGSTSGDTASLTITGAQAEDEADYYCNSRDSSGNPHVLFGGGTQLTVL" unit_of_measure=nM measured_number=17
